# system-tested: T1, cMet-Fc fusion protein (extracellular domain of the cMet receptor expressed as an Fc-fusion protein) (human, UniProt P08581 25-932)
# T1 construct: extracellular domain; also called soluble cMet-Fc-fusion protein; soluble cMet receptor; not shown: Fc part
# T1 sequence (P08581 25-932): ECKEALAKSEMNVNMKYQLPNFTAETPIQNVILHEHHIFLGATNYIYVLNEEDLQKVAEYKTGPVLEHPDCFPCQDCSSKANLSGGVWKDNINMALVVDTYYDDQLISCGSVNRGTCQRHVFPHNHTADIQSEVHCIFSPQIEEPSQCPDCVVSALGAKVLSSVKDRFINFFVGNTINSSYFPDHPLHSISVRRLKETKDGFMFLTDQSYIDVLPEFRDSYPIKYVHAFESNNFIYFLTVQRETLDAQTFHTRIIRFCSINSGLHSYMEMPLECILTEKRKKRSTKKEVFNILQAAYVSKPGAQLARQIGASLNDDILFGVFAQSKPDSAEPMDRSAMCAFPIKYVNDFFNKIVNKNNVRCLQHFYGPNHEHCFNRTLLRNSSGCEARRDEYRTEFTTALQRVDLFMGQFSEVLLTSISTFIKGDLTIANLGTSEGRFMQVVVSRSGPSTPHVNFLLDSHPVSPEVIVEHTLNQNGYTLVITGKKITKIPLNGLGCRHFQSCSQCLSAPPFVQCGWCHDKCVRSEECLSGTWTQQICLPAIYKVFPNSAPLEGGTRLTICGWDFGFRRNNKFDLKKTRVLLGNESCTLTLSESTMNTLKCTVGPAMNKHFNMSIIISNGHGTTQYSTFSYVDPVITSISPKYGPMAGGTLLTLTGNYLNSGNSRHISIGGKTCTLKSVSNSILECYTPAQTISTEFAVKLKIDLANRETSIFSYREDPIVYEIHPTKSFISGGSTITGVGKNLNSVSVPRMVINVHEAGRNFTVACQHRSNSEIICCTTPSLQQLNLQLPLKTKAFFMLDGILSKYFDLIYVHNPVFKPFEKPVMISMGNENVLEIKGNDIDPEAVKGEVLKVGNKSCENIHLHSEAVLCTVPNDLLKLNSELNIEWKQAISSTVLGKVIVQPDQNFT
# test-details: phage ELISA on cMet-Fc, competitor HGF 100 ng/mL
quantity-kind: % of binding in the absence of HGF (%)
Report the value in % with no unit label.

What value of measured % of binding in the absence of HGF is listed for AQQWMFQIHQSMAWPYEWIDSY [524-D07 peptide-displaying phage (SEQ ID NO: 494)] ? 105
